system: pERK in A375 cells; assay: In Cell Western (ICW) assay, pERK in A375 cells; format: cell-based; details: Homo sapiens, A-375, 3 h treatment
Endpoint Label: IC50

Please review the following examples before continuing.
Nc1ccc(-c2nc(N3CCOCC3)c3cc(-c4cccc(NS(=O)(=O)CCCF)c4F)cc(OCC4CC4)c3n2)cn1	1 to 100 nM
Nc1ncc(-c2nc(N3CCOCC3)c3cc(-c4cccc(NS(=O)(=O)CCCF)c4F)cc(N4CCOCC4)c3n2)cn1	1 to 100 nM
CNc1ncc(-c2nc(N3CCOCC3)c3nc(-c4cccc(NS(=O)(=O)CCCF)c4F)ccc3n2)cn1	100 to 1000 nM
CC(C)Oc1cc(-c2cccc(NS(=O)(=O)CCCF)c2F)cc2c(N3CCOC[C@H]3C)nc(-c3cnc(N)nc3)nc12	1 to 100 nM
Nc1cc(C(F)(F)F)c(-c2nc(N3CCOCC3)c3nc(-c4cccc(NS(=O)(=O)c5cc(F)ccc5F)c4F)ccc3n2)cn1	1 to 100 nM

Item: `Nc1ncc(-c2nc(N3CCOCC3)c3nc(-c4cccc(NS(=O)(=O)c5cc(F)ccc5F)c4F)ccc3n2)cn1` | IC50: 100 to 1000 nM

Item: `O=S(=O)(CCCF)Nc1cccc(-c2ccc3nc(-c4cnc(NCCCO)nc4)nc(N4CCOCC4)c3n2)c1F` | IC50: 1 to 100 nM

Item: `CCCS(=O)(=O)Nc1cccc(-c2cc(OC)c3nc(-c4ccc(N)nc4F)nc(N4CCOCC4)c3c2)c1F` | IC50: 100 to 1000 nM

Item: `Nc1ccc(-c2nc(N3CCOCC3)c3nc(-c4cccc(NS(=O)(=O)c5c(F)cccc5F)c4F)ccc3n2)cn1` | IC50: 100 to 1000 nM

Item: `COc1cc(-c2c(F)ccc(NS(=O)(=O)CCCF)c2F)cc2c(N3CCOCC3)nc(-c3cccc4[nH]ncc34)nc12` | IC50: 1 to 100 nM

Item: `COc1cc(-c2cccc(NS(=O)(=O)c3c(F)cccc3F)c2F)cc2c(N3CCOCC3)nc(-c3ccc(NC(=O)NCCO)cc3)nc12` | IC50: 1000 to 10000 nM

Item: `COCCOc1cc(-c2cccc(NS(=O)(=O)CCCF)c2F)cc2c(N3CCOCC3)nc(-c3cnc(N)nc3)nc12` | IC50: 1 to 100 nM

Item: `CCOc1cc(-c2cccc(NS(=O)(=O)CCCF)c2F)cc2c(N3CCOC[C@@H]3C)nc(-c3ccc(N)nc3)nc12` | IC50: 1 to 100 nM

Item: `CNC(=O)Nc1ccc(-c2nc(N3CCOCC3)c3nc(-c4cccc(NS(=O)(=O)CCCF)c4F)ccc3n2)cc1` | IC50: 100 to 1000 nM

###

Measured IC50, listed per entry.
system: pERK in A375 cells; test: In Cell Western (ICW) assay, pERK in A375 cells; format: cell-based; conditions: Homo sapiens, A-375, 3 h treatment

COc1cc(-c2cccc(NS(=O)(=O)CCCF)c2F)cc2c(N3CCOC[C@@H]3C)nc(-c3ccc(N)nc3)nc12	1 to 100 nM
COc1cc(-c2cccc(NS(=O)(=O)c3ccccc3F)c2F)cc2c(N3CCOCC3)nc(-c3ccc(N)nc3)nc12	1 to 100 nM
C[C@H]1COCCN1c1nc(-c2ccc(N)nc2)nc2ccc(-c3cccc(NS(=O)(=O)CCCF)c3F)nc12	100 to 1000 nM
COc1cc(-c2cccc(NS(=O)(=O)CCCF)c2F)cc2c(N3CCOC[C@H]3C)nc(-c3ccc(N)nc3)nc12	1 to 100 nM

Now consider a different compound.
Item: `C[C@@H]1COCCN1c1nc(-c2cnc(N)nc2)nc2ccc(-c3cccc(NS(=O)(=O)CCCF)c3F)nc12` | IC50: 1 to 100 nM
